Target: Beta Secretase enzyme (BACE) (Homo sapiens (Human), UniProt P56817)
Sequence (P56817 46-501): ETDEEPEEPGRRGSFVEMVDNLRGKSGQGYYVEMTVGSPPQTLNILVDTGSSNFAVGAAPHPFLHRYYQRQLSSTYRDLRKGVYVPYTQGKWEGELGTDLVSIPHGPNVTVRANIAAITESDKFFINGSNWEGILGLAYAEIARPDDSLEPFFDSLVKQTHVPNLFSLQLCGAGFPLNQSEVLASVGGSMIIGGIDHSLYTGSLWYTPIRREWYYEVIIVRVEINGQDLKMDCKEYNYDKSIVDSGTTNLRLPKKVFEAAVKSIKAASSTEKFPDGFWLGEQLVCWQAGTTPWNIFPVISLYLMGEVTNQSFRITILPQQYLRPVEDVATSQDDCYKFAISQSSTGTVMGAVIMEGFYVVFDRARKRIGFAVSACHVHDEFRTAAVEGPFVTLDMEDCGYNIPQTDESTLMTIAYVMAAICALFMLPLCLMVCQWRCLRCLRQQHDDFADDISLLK
Experiment: In vitro enzymatic BACE FRET assay
Type: biochemical
Conditions: average IC50; read-out: BACE 1 FRET assay IC50
Protocol: In Vitro Enzymatic BACE FRET (Fluorescence Resonance Energy Transfer) Assay (Enzyme Assay Data in the Example Table I) The assay buffer used in this screen is 0.05 M acetate, pH 4.2, 10% DMSO final, 100 uM genapol (which is a nonionic detergent, below its Critical Micelle Concentration). […] The FRET assay is terminated with by addition of Tris buffer, which raises the pH to neutrality, and the fluorescence is determined. […]
RECORDED METRIC: pIC50
Please note pIC50 is a logarithmic value: minus log10 of concentration in mol/L. Answer with that number alone.

Before answering, review these 3 worked examples.
INSERT INTO measurements (compound, measured_target, recorded_metric, quantitative_readout) VALUES
  ('COc1cnc(C(=O)Nc2ccc(F)c([C@]3(CF)C[C@@H](C(F)(F)F)OC(N)=N3)c2)c(Cl)c1 [Example 50]', 'Beta Secretase enzyme (BACE) (Homo sapiens (Human), UniProt P56817)', 'pIC50', 7.62),
  ('COc1cnc2c(Nc3ccc(F)c([C@]4(CF)C[C@@H](C(F)(F)F)OC(N)=N4)c3)nccc2n1 (racemic) [Example 9]', 'Beta Secretase enzyme (BACE) (Homo sapiens (Human), UniProt P56817)', 'pIC50', 7.30),
  ('Cn1cc(NC(=O)c2ccc(C#N)cn2)cc([C@]2(C)C[C@@H](C(F)(F)F)OC(N)=N2)c1=O [Example 149]', 'Beta Secretase enzyme (BACE) (Homo sapiens (Human), UniProt P56817)', 'pIC50', 6.62);

Problem: Can you share its pIC50? I mean this compound: NC1=N[C@](CF)(c2cc(Oc3ncc(Cl)cc3F)ccc2F)C[C@@H](C(F)(F)F)O1 [Example 95]
Solution: 5.54

Problem: Query (compound): NC1=N[C@](CF)(c2cc(Oc3cnccn3)ccc2F)C[C@@H](C(F)(F)F)O1 [Example 92] ; field requested: pIC50
Solution: 5.79

Problem: Item C[C@@]1(c2cc(Nc3ncnc4cc(C#N)cnc34)cnc2F)C[C@@H](C(F)(F)F)OC(N)=N1 [Example 75] has what recorded pIC50?
Solution: 6.43

Problem: Record request: pIC50 value, item COc1ccc(C(=O)Nc2cnc(F)c([C@]3(CF)C[C@@H](C(F)(F)F)OC(N)=N3)c2)nc1 [Example 142]
Solution: 6.94

Problem: Any idea what pIC50 was measured for N#Cc1ccc(C(=O)Nc2cnc(F)c([C@]3(CF)C[C@@H](C(F)(F)F)OC(N)=N3)c2)nc1 [Example 141] ?
Solution: 6.77

Problem: Need pIC50, item NC1=N[C@](CF)(c2cc(NC(=O)c3ccc(Cl)cn3)cnc2F)C[C@@H](C(F)(F)F)O1 [Example 139]
Solution: 7.02

Problem: What value of pIC50 has been recorded for this entry: Cc1cc(C#N)cnc1C(=O)Nc1cnc(F)c([C@]2(CF)C[C@@H](C(F)(F)F)OC(N)=N2)c1 [Example 140]
Solution: 6.95

FYI, the data here is from patent US9296734B2.
